target.or.system: T1, human PD-1 on transfected cells (human, UniProt Q15116 25-288)
T1 construct: also called CHO-S cells expressing human PD-1; human PD-1 transfected CHO-S cells
T1 sequence (Q15116 25-288 limits assumed): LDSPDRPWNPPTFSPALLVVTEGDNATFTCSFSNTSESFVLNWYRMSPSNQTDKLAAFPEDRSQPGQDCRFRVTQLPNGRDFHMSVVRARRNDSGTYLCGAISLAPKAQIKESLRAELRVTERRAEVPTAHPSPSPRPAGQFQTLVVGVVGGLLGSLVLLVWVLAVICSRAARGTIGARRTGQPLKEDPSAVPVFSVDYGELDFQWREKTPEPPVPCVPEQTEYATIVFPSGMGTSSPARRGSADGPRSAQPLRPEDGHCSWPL
experimental.protocol: FACS blocking assay: mouse Fc fusion-human PD-L1 binding to human PD-1 transfected CHO-S cells
reported.endpoint: IC50 (nM)
Give a bare numeral; the unit nM is implied.

Use the examples below as a reference point.
binder="1H6 (antibody, human IgG4, V domains shown) VH: QVQLVQSGAEVKKPGSSVKVSCKASGFTFTTYYISWVRQAPGQGLEYLGYINMGSGGTNYNEKFKGRVTITADKSTSTAYMELSSLRSEDTAVYYCAILGYFDYWGQGTMVTVSS VL: DVVMTQSPLSLPVTLGQPASISCRSSQSLLDSDGGTYLYWFQQRPGQSPRRLIYLVSTLGSGVPDRFSGSGSGTDFTLKISRVEAEDVGVYYCMQLTHWPYTFGQGTKLEIK" measured_result=2.22
binder="2G4 (antibody, human IgG4, V domains shown) VH: QVQLVQSGAEVKKPGSSVKVSCKASGFTFTTYYISWVRQAPGQGLEYLGYINMGSGGTNYNEKFKGRVTITADKSTSTAYMELSSLRSEDTAVYYCAIIGYFDYWGQGTMVTVSS VL: DVVMTQSPLSLPVTLGQPASISCRSSQSLLDSDGSTYLYWFQQRPGQSPRRLIYLVSTLGSGVPDRFSGSGSGTDFTLKISRVEAEDVGVYYCMQLTHWPYTFGQGTKLEIK" measured_result=2.23
binder="2C2 (antibody, human IgG4, V domains shown) VH: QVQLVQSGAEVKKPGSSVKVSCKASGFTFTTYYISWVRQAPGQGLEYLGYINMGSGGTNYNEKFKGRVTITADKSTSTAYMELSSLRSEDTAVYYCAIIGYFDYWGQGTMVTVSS VL: DVVMTQSPLSLPVTLGQPASISCRSSQSLLDSDGATYLYWFQQRPGQSPRRLIYLVSTLGSGVPDRFSGSGSGTDFTLKISRVEAEDVGVYYCMQLTHWPYTFGQGTKLEIK" measured_result=2.2

Please examine the following record next.
Measured IC50 of 2E5 (antibody, human IgG4, V domains shown) VH: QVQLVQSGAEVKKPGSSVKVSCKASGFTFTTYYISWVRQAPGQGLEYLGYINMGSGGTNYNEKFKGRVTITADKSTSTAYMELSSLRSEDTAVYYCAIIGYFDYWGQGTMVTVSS VL: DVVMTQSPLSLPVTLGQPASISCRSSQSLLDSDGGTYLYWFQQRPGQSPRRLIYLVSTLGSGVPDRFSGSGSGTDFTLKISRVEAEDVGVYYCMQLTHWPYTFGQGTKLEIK : 2.14

Taken from patent US20230014722A1.
